Every entry's value here was drawn from patent US20260274955A1.

// Anti-CD28 Fab (SEQ ID NOs: 202, 203) signal lookup, one value per entry
# system-under-test: T1, anti-CD28 Fab (SEQ ID NOs: 202, 203)
# T1 construct: biotinylated and captured on neutravidin coated plates in the phage ELISA
# T1 sequence (VH, as listed by the source, chain 1 of 2): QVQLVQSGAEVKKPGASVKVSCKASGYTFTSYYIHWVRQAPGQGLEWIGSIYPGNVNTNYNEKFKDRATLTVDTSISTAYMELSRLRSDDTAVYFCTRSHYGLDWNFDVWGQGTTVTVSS
# T1 sequence (VL, as listed by the source, chain 2 of 2): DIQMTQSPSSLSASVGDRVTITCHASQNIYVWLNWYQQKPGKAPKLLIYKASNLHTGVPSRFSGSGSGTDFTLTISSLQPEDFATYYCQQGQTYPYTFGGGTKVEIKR
# assay-name: phage binding ELISA on captured biotinylated Fab;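 also: clonal phage supernatants added to wells preincubated with CD28 antigen or blocking buffer only, bound phage detected by ELISA with horseradish-conjugated anti-M13 antibody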
readout-name: Anti-CD28 Fab (SEQ ID NOs: 202, 203) signal

>>> test_result("TCSAGATWSWPMCL [Phage-921]")
2.26
>>> test_result("YCAGHAWQYINKCL [Phage-13]")
0.64
>>> test_result("TCSAGATYEWPWCM [Phage-978]")
1.97
>>> test_result("ECHWSMWAVGHACF [Phage-9]")
1.77
>>> test_result("PDCHTILFKPWCVR [Phage-16]")
1
>>> test_result("TCSAGATYTWSKCF [Phage-939]")
2.15
>>> test_result("TCAAGAHYTWPECF [Phage-972]")
1.99
>>> test_result("WCWDYREWVPMTCP [Phage-8]")
2.3
